Each item that follows carries a reported combination Emax.
- Test system: C2BBe1 (Colorectal Carcinoma)
- Measurement Protocol: combination Emax (second highest fraction inhibited in the dose matrix, 72 h); higher = more inhibition; extreme values may be limits of the assay
Observable: combination Emax

- COc1cccc(OCCCN)c1-c1cc(Nc2cnc(C#N)cn2)n[nH]1 [Prexasertib] + CN(C)CCCOc1ccc(-c2ccc3ncc4c(c3c2)n(C2CCOCC2)c(=O)n4C)cn1 [AZD0156] (first compound max 1 µM, 7x7, partner max 1 µM): 0.582
- NC1(C(=O)N[C@@H](CCO)c2ccc(Cl)cc2)CCN(c2ncnc3[nH]ccc23)CC1 [Capivasertib] + COc1nnc2ccc(N3CCC(c4ccc(OCCN5CCN(C)C(=O)[C@H]5C)cc4)CC3)nn12 [AZD5153] (first compound max 10 µM, 7x7, partner max 1 µM): 0.405
- CCN(CCO)CCCOc1ccc2c(Nc3cc(CC(=O)Nc4cccc(F)c4)[nH]n3)ncnc2c1 [AZD2811] + C=CCn1c(=O)c2cnc(Nc3ccc(N4CCN(C)CC4)cc3)nc2n1-c1cccc(C(C)(C)O)n1 [AZD1775] (first compound max 1 µM, partner max 1 µM): 0.274
- CCc1c2c(nc3ccc(O)cc13)-c1cc3c(c(=O)n1C2)COC(=O)[C@]3(O)CC [SN-38] + CN(C)CCCOc1ccc(-c2ccc3ncc4c(c3c2)n(C2CCOCC2)c(=O)n4C)cn1 [AZD0156] (first compound max 0.3 µM, 7x7, partner max 1 µM): 0.149
- C=CCn1c(=O)c2cnc(Nc3ccc(N4CCN(C)CC4)cc3)nc2n1-c1cccc(C(C)(C)O)n1 [AZD1775] + O=C(c1cc(Cc2n[nH]c(=O)c3ccccc23)ccc1F)N1CCN(C(=O)C2CC2)CC1 [Olaparib] (first compound max 1 µM, partner max 10 µM): 0.335
- COc1cc2c(cc1OCCCCCOc1cc3c(cc1OC)C(=O)N1C=C(C)C[C@H]1C=N3)N=C[C@@H]1CC(C)=CN1C2=O [SG3199] + O=C(c1cc(Cc2n[nH]c(=O)c3ccccc23)ccc1F)N1CCN(C(=O)C2CC2)CC1 [Olaparib] (first compound max 0.001 µM, 7x7, partner max 10 µM): 0.0966
- COc1cccc(OCCCN)c1-c1cc(Nc2cnc(C#N)cn2)n[nH]1 [Prexasertib] + C[C@@H]1COCCN1C2=NC(=NC(=C2)C3(CC3)[S@](=N)(=O)C)C4=C5C=CNC5=NC=C4 [AZD6738] (first compound max 1 µM, 7x7, partner max 10 µM): 0.556

---

- Tested on: MRK-nu-1 (Breast Carcinoma)
- Measurement Protocol: combination Emax (second highest fraction inhibited in the dose matrix, 72 h); higher = more inhibition; extreme values may be limits of the assay
Listing: combination Emax of selected molecules
Observable: combination Emax

- CC1(C)CCC(CN2CCN(c3ccc(C(=O)NS(=O)(=O)c4ccc(NCC5CCOCC5)c([N+](=O)[O-])c4)c(Oc4cnc5[nH]ccc5c4)c3)CC2)=C(c2ccc(Cl)cc2)C1 [Venetoclax] + C=CCn1c(=O)c2cnc(Nc3ccc(N4CCN(C)CC4)cc3)nc2n1-c1cccc(C(C)(C)O)n1 [AZD1775] (first compound max 1 µM, partner max 1 µM): 0.294
- CC(=O)c1c(C)c2cnc(Nc3ccc(N4CCNCC4)cn3)nc2n(C2CCCC2)c1=O [Palbociclib] + CC1(C)CCC(CN2CCN(c3ccc(C(=O)NS(=O)(=O)c4ccc(NCC5CCOCC5)c([N+](=O)[O-])c4)c(Oc4cnc5[nH]ccc5c4)c3)CC2)=C(c2ccc(Cl)cc2)C1 [Venetoclax] (first compound max 10 µM, 7x7, partner max 1 µM): 0.37
- Cc1c2c(nn1C)CSCc1cc(n(C)n1)CSc1cc(c3ccccc3c1)OCCCc1c(C(=O)O)n(C)c3c-2c(Cl)ccc13 [AZD5991] + C=CCn1c(=O)c2cnc(Nc3ccc(N4CCN(C)CC4)cc3)nc2n1-c1cccc(C(C)(C)O)n1 [AZD1775] (first compound max 1 µM, partner max 1 µM): 1
- Cc1c2c(nn1C)CSCc1cc(n(C)n1)CSc1cc(c3ccccc3c1)OCCCc1c(C(=O)O)n(C)c3c-2c(Cl)ccc13 [AZD5991] + CCN(CCO)CCCOc1ccc2c(Nc3cc(CC(=O)Nc4cccc(F)c4)[nH]n3)ncnc2c1 [AZD2811] (first compound max 1 µM, 7x7, partner max 1 µM): 1
- Cc1c2c(nn1C)CSCc1cc(n(C)n1)CSc1cc(c3ccccc3c1)OCCCc1c(C(=O)O)n(C)c3c-2c(Cl)ccc13 [AZD5991] + CC(=O)O[C@H]1C(=O)[C@@]2(C)[C@H]([C@H](OC(=O)c3ccccc3)[C@]3(O)C[C@H](OC(=O)[C@H](O)[C@@H](NC(=O)c4ccccc4)c4ccccc4)C(C)=C1C3(C)C)[C@]1(OC(C)=O)CO[C@@H]1C[C@@H]2O [Paclitaxel] (first compound max 1 µM, 7x7, partner max 3 µM): 1
- N#Cc1cnc(Nc2cc(NC[C@H]3CNCCO3)c(C(F)(F)F)cn2)cn1 [SRA737] + C=CCn1c(=O)c2cnc(Nc3ccc(N4CCN(C)CC4)cc3)nc2n1-c1cccc(C(C)(C)O)n1 [AZD1775] (first compound max 10 µM, partner max 1 µM): 0.724

---

- Test system: ATN-1 (T-Lymphoblastic Leukemia)
- Measurement Protocol: combination Emax (second highest fraction inhibited in the dose matrix, 72 h); higher = more inhibition; extreme values may be limits of the assay
Observable: combination Emax

- COc1nnc2ccc(N3CCC(c4ccc(OCCN5CCN(C)C(=O)[C@H]5C)cc4)CC3)nn12 [AZD5153] + C[C@@H]1COCCN1C2=NC(=NC(=C2)C3(CC3)[S@](=N)(=O)C)C4=C5C=CNC5=NC=C4 [AZD6738] (first compound max 1 µM, 7x7, partner max 10 µM): 0.984
- CC(=O)c1c(C)c2cnc(Nc3ccc(N4CCNCC4)cn3)nc2n(C2CCCC2)c1=O [Palbociclib] + Cc1c2c(nn1C)CSCc1cc(n(C)n1)CSc1cc(c3ccccc3c1)OCCCc1c(C(=O)O)n(C)c3c-2c(Cl)ccc13 [AZD5991] (first compound max 10 µM, 7x7, partner max 1 µM): 0.954
- CC1(C)CCC(CN2CCN(c3ccc(C(=O)NS(=O)(=O)c4ccc(NCC5CCOCC5)c([N+](=O)[O-])c4)c(Oc4cnc5[nH]ccc5c4)c3)CC2)=C(c2ccc(Cl)cc2)C1 [Venetoclax] + Cc1cc2ncnn2cc1Nc1ncc2c(n1)n(C1CCOCC1)c(=O)n2C [AZD7648] (first compound max 1 µM, 7x7, partner max 10 µM): 0.47
- CN(C)CCCOc1ccc(-c2ccc3ncc4c(c3c2)n(C2CCOCC2)c(=O)n4C)cn1 [AZD0156] + O=C(c1cc(Cc2n[nH]c(=O)c3ccccc23)ccc1F)N1CCN(C(=O)C2CC2)CC1 [Olaparib] (first compound max 3 µM, partner max 3 µM): 0.393
- COc1cccc(OCCCN)c1-c1cc(Nc2cnc(C#N)cn2)n[nH]1 [Prexasertib] + CN(C)CCCOc1ccc(-c2ccc3ncc4c(c3c2)n(C2CCOCC2)c(=O)n4C)cn1 [AZD0156] (first compound max 1 µM, 7x7, partner max 1 µM): 1
- COc1cccc2c1C(=O)c1c(O)c3c(c(O)c1C2=O)C[C@@](O)(C(=O)CO)C[C@@H]3O[C@H]1C[C@H](N)[C@H](O)[C@H](C)O1 [Doxorubicin] + Cc1cc2ncnn2cc1Nc1ncc2c(n1)n(C1CCOCC1)c(=O)n2C [AZD7648] (first compound max 1 µM, 7x7, partner max 10 µM): 0.996
- Cc1cc2ncnn2cc1Nc1ncc2c(n1)n(C1CCOCC1)c(=O)n2C [AZD7648] + C=CCn1c(=O)c2cnc(Nc3ccc(N4CCN(C)CC4)cc3)nc2n1-c1cccc(C(C)(C)O)n1 [AZD1775] (first compound max 10 µM, partner max 1 µM): 1

---

compounds and their reported Bliss excess
- Tested on: SBC-3 (Small Cell Lung Carcinoma);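 note: after 72 h of two-drug dosing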
- Measurement Protocol: Bliss excess, mean over the matrix (fraction); higher = more synergy
Observable: Bliss excess

* Cn1cnc2c(F)c(Nc3ccc(Br)cc3Cl)c(C(=O)NOCCO)cc21 [Selumetinib] + CC(C)n1c(=O)n(C)c2cnc3cc(F)c(-c4ccc(OCCCN5CCCCC5)nc4)cc3c21 [AZD1390] (first compound max 10 µM, 7x7, partner max 0.3 µM) | -0.0592
* Cc1nc(Nc2ncc(C(=O)Nc3c(C)cccc3Cl)s2)cc(N2CCN(CCO)CC2)n1 [Dasatinib] + CC(=O)Nc1cccc(-n2c(=O)n(C3CC3)c(=O)c3c(Nc4ccc(I)cc4F)n(C)c(=O)c(C)c32)c1 [Trametinib] (first compound max 2 µM, 7x7, partner max 1 µM) | 0.0453

---

Parameter: combination Emax. Scope: all listed entries.
- System: GCIY (Gastric Carcinoma)
- Measurement Protocol: combination Emax (second highest fraction inhibited in the dose matrix, 72 h); higher = more inhibition; extreme values may be limits of the assay
Observable: combination Emax

- COc1nnc2ccc(N3CCC(c4ccc(OCCN5CCN(C)C(=O)[C@H]5C)cc4)CC3)nn12 [AZD5153] + C[C@@H]1COCCN1C2=NC(=NC(=C2)C3(CC3)[S@](=N)(=O)C)C4=C5C=CNC5=NC=C4 [AZD6738] (first compound max 1 µM, 7x7, partner max 10 µM): 0.794
- Cc1c2c(nn1C)CSCc1cc(n(C)n1)CSc1cc(c3ccccc3c1)OCCCc1c(C(=O)O)n(C)c3c-2c(Cl)ccc13 [AZD5991] + CS(=O)(=O)CCNCc1ccc(-c2ccc3ncnc(Nc4ccc(OCc5cccc(F)c5)c(Cl)c4)c3c2)o1 [Lapatinib] (first compound max 1 µM, 7x7, partner max 10 µM): 0.447
